B1: IQUB (parent)
chain: EADYEDDSKIAFLMQLQDIQYLTE

# Variants of: B1
# assay_text: protein stability index of a GFP-peptide fusion (GPS, HEK-293T) (PSI 1-6); higher = more stable;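 also: lentivirally expressed fusions sorted by FACS into six bins by GFP to DsRed ratio, PSI derived from sequencing read proportions per bin multiplied by bin number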
# condition_context: c terminus: a fixed tail appended
readout_type: protein stability index
Please reply with the number alone, leaving off any unit.

Prompt line: Param item = I19P ; retrieve measured protein stability index.
Response line: 4.18

Prompt line: Repeat for the following variant: F12T
Response line: 4.94

Prompt line: L22N , same question.
Response line: 4.65

Prompt line: What about this variant? M14N
Response line: 4.26

Prompt line: Now give it for E24L too.
Response line: 1.56

Prompt line: Then this variant: D7Q
Response line: 3.2

Prompt line: Would you mind doing E24M as well?
Response line: 1.86

Prompt line: Now consider Y4Q and answer again.
Response line: 3.78

Prompt line: Follow-up item: D3W
Response line: 2.93

Prompt line: Then what about the variant Q15K ?
Response line: 2.9

Prompt line: Now this one: K9D
Response line: 3.63

Prompt line: Then this variant: A2D
Response line: 3.53

Prompt line: Same question for S8W please.
Response line: 2.29

Prompt line: Another: I10A
Response line: 4

Prompt line: And I19G ?
Response line: 4.31

Prompt line: Next variant up: L16Y
Response line: 3.64

Prompt line: // query: T23A
Response line: 2.26

Prompt line: Cool, now L16H
Response line: 4.43

Prompt line: Follow-up item: L13Y
Response line: 2.84

Prompt line: L13C , same question.
Response line: 3.5

Prompt line: Then this variant: D6V
Response line: 2.17

Prompt line: Moving on to Q17L
Response line: 2.68
